Origin of values: paper PMC6421522

These records show pIC50 for ALK WT (Homo sapiens).
Lab note: report pIC50 as minus log10 of the concentration in molar units, number only.

Exam item: Which pIC50 is reported with ALK WT (Homo sapiens) for this entry: CCOc1cc(C2CCN(C)CC2)ccc1Nc1ncc2c(n1)N(Cc1sccc1C)[C@H](CC)C(=O)N2C [16j] ?
Marked response: 7.05

Exam item: Which pIC50 is reported with ALK WT (Homo sapiens) for this entry: CCOc1cc(C2CCN(C)CC2)ccc1Nc1ncc2c(n1)N(Cc1cc(C)cs1)[C@H](CC)C(=O)N2C [16k] ?
Marked response: 7.22

Exam item: Which pIC50 is reported with ALK WT (Homo sapiens) for this entry: CCOc1cc(C2CCN(C)CC2)ccc1Nc1ncc2c(n1)N(Cc1ccccc1)[C@H](CC)C(=O)N2C [16i] ?
Marked response: 6.92

###

target: PLK-1 (Homo sapiens); construct: purchased Thermo Fisher Scientific (SelectScreen service); test: PLK-1 Z-LYTE activity assay (SelectScreen); type: biochemical; conditions: relative to starting compound BI-2536
Sequence (P53350 whole entry): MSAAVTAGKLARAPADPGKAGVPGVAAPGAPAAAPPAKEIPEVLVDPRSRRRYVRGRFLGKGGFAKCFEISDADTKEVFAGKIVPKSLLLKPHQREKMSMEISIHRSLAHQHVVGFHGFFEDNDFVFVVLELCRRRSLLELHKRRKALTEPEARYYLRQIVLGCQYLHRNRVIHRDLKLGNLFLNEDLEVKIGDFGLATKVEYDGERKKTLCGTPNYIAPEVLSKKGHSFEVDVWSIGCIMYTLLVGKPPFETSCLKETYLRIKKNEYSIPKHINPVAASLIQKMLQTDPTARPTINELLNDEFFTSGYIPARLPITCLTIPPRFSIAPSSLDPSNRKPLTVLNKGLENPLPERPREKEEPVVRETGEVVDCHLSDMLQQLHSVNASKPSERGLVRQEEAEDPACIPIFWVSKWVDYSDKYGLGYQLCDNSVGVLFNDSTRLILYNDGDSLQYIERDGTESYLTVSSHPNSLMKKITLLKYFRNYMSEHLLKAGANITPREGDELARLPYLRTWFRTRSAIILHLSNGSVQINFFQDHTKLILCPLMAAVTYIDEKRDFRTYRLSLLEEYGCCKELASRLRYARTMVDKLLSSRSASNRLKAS
RECORDED ENDPOINT: fold decrease of PLK-1 activity/potency

{"MOLECULE": "CCOc1cc(C2CCN(C)CC2)ccc1Nc1ncc2c(n1)N(Cc1ccccc1)[C@H](CC)C(=O)N2C [16i]", "fold decrease of PLK-1 activity/potency": "100–200 fold"}
{"MOLECULE": "CCOc1cc(C2CCN(C)CC2)ccc1Nc1ncc2c(n1)N(Cc1cccc(Br)c1)[C@H](CC)C(=O)N2C [16h]", "fold decrease of PLK-1 activity/potency": "100–200 fold"}
{"MOLECULE": "CCOc1cc(C(=O)NC2CCN(C)CC2)ccc1Nc1ncc2c(n1)N(Cc1ccccc1)[C@H](CC)C(=O)N2C [16g]", "fold decrease of PLK-1 activity/potency": "30–40 fold"}
{"MOLECULE": "CCOc1cc(C(=O)NC2CCN(C)CC2)ccc1Nc1ncc2c(n1)N(Cc1cccc(Br)c1)[C@H](CC)C(=O)N2C [16f]", "fold decrease of PLK-1 activity/potency": "30–40 fold"}

Exam item: Which fold decrease of PLK-1 activity/potency value belongs to CCOc1cc(C2CCN(C)CC2)ccc1Nc1ncc2c(n1)N(Cc1cccc(C#N)c1)[C@H](CC)C(=O)N2C [23b] ?
Marked response: > 700 fold
